# TEST_SYSTEM: IR (Homo sapiens, UniProt P06213)
# EXPERIMENT_NOTES: Phage ELISA, binding of phage clones to IR (ratio over background)
# EXPERIMENTAL_CONTEXT: ratio of IR divided by ratio of IGF-1R
No end group written: not given here.
Exercise: for every item that follows, state its recorded Comparisons IR/IGF-1R.
Numbers only.

1. RCGRELYHSTFYDWFDRQVAGRTCPS [H2CA-1-A7-IGFR]	0.3

# map each substance to its Comparisons IR/IGF-1R
1. AETSAQVGWQRLWSVWPGDHWSTLDPFYHKLSELLRESGA [Peptide B6L-3-G5-IR]
2. GFREGNFYEWFQAQVT [Peptide E4Dα-4-H2-IR]
3. AGTPAQVG*NRLWSVWPGEHWNTVDPFYNKLSELLRESGA (AGTPAQVGXNRLWSVWPGEHWNTVDPFYNKLSELLRESGA; not fully specified; X: residue not identified in the source; ends and bridges not checked) [Peptide B6L-4-A7-IR]
4. RGAVAGFHDQFYDWFDRQVSRVHKFG [H2CA-4-H9-IGFR]
5. CSMAAVAEAGDDDDPFYHKLSELCQGS [Peptide B6Hα-3-F1-IR]

**Result**
1: 0.7; 2: 0.2; 3: 0.6; 4: 0.3; 5: 0.5

# map each substance to its Comparisons IR/IGF-1R
1. VVTPVNFYRALEALVRG.RLG (VVTPVNFYRALEALVRGXRLG; not fully specified; printed as VVTPVNFYRALEALVRG.RLG; X: residue not identified in the source; ends and bridges not checked) [20E2B-2-B11-IGFR]
2. IIGGFYSYFNSVLRLGT [NNRPγ-4-A1-IR]
3. GAPVDQLHEDFYDWFVRQVSQAATG [H2CA-2-B2-IGFR]
4. GCEVIVEEGDSADPFYHKLSELCQGS [Peptide B6Hα-2-D1-IR]
5. PVGVQGFYEGLSRLVLGRGGW [20E2B-4-F8-IGFR]
6. SACQFDCHENFYDWFARQVSGGAAYG [H2CA-4-H8-IGFR]
7. QPDHSYFYSLLQELVGSEERL [20E2B-4-F9-IGFR]
8. YRGMLVLGRSSDGAGKVAFERPARIGQTVFAVNFYDWFV [Peptide A6L-0-E6-IR]

**Result**
1. 0.1
2. 0.2
3. 0.3
4. 0.2
5. 0.1
6. 0.1
7. 0.1
8. 0.1

# map each substance to its Comparisons IR/IGF-1R
1. LRRQAPVEENFYDWFVRQVSGDRVGG [H2CA-3-D7-IGFR]
2. RGIVAMVEATEVGSDHPFYHKLSELVQGS [Peptide B6Hα-2-C7-IR]
3. MNVFVSFYDAIDQLVCQRIGC [20E2A-4-G11-IGFR]
4. VATSQGFYSGLSELLQGGGNV [20E2B-3-E12-IGFR]
5. TLRSPTFYDWLEMVLTHGQGG [20E2B-1-A8-IGFR]
6. AQPCGGFYGLLEQLVGRSVCD [20E2B-4-F10-IGFR]

**Result**
[0.3, 0.1, 0.4, 0.1, 0.2, 0.1]
